Each item that follows carries a reported kon.
- subjectOfTest: recombinant cynomolgus BCMA Fc(kih) (cynomolgus, UniProt A0A2K5UD97 4-51)
- Sequence (A0A2K5UD97 entry or part of it): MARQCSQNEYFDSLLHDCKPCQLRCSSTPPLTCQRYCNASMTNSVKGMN
- protocolText: SPR (Biacore T200), IgG captured via anti-human Fab, BCMA Fc(kih) as analyte, 1:1 Langmuir fit
Express your answer in M⁻¹ s⁻¹, writing the number without its unit.

1. Mab 21 IgG (antibody, V domains shown, also called antibody 21) VH: EVQLLESGGGLVQPGGSLRLSCAASGFTFSDNAMGWVRQAPGKGLEWVSAISGPGSSTYYADSVKGRFTISRDNSKNTLYLQMNSLRAEDTAVYYCAKVLGWFDYWGQGTLVTVSS VL: EIVLTQSPGTLSLSPGERATLSCRASQSVSEYYLAWYQQKPGQAPRLLIEHASTRATGIPDRFSGSGSGTDFTLTISRLEPEDFAVYYCQQYGYPPDFTFGQGTKVEIK; 491000
2. Mab 42 IgG (antibody, V domains shown, also called antibody 42; clone 42) VH: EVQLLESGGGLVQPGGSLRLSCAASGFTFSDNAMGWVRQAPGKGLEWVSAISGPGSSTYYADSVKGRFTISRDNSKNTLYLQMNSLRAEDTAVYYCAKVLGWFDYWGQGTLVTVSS VL: EIVLTQSPGTLSLSPGERATLSCRASQSVSDEYLSWYQQKPGQAPRLLIHSASTRATGIPDRFSGSGSGTDFTLAISRLEPEDFAVYYCQQYGYPPDFTFGQGTKVEIK; 707000
3. Mab 33 IgG (antibody, V domains shown) VH: EVQLLESGGGLVQPGGSLRLSCAASGFTFYTNAMGWVRQAPGKGLEWVSAINRFGGSTYYADSVKGRFTISRDNSKNTLYLQMNSLRAEDTAVYYCAKVLGWFDYWGQGTLVTVSS VL: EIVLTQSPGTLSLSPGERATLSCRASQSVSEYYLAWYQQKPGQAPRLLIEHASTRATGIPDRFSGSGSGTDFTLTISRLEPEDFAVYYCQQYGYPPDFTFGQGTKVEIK; 132000
4. Mab 22 IgG (antibody, V domains shown, also called antibody 22; clone 22) VH: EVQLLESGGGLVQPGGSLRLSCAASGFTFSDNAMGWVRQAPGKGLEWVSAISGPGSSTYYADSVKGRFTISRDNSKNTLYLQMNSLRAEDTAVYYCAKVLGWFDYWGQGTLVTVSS VL: EIVLTQSPGTLSLSPGERATLSCRASQSVSSYYLAWYQQKPGQAPRLLISGAGSRATGIPDRFSGSGSGTDFTLTISRLEPEDFAVYYCQQYGYPPDFTFGQGTKVEIK; 454000
5. Mab 39 IgG (antibody, V domains shown) VH: EVQLLESGGGLVQPGGSLRLSCAASGFTFTQNAMGWVRQAPGKGLEWVSAISPTGFSTYYADSVKGRFTISRDNSKNTLYLQMNSLRAEDTAVYYCAKVLGWFDYWGQGTLVTVSS VL: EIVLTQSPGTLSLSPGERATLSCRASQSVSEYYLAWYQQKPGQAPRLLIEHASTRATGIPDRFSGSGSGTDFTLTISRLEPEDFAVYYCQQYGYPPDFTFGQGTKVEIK; 215000

Let's switch to this binder now.
Prompt: So what does the record say about kon for Mab 27 IgG (antibody, V domains shown) VH: EVQLLESGGGLVQPGGSLRLSCAASGFTFSSAPMGWVRQAPGKGLEWVSAISYIGHTYYADSVKGRFTISRDNSKNTLYLQMNSLRAEDTAVYYCAKVLGWFDYWGQGTLVTVSS VL: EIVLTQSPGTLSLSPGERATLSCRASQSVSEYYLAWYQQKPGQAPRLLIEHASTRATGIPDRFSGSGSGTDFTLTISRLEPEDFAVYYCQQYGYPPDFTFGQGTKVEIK ?
Response: 216000

Recorded values, source patent US20220002427A1.
